// data source = paper PMC8518114

Assay: Plasma pharmacokinetics of emodepside, single ascending dose (SAD) and food effect study
Format: in vivo, human
Conditions: human, in vivo, po, 10 mg, SAD, single oral 10 mg LSF fasting; plasma, HPLC-MS/MS; mean
Description: Emodepside and placebo were supplied as a LSF and a standard immediate‐release (IR) tablet. The LSF was a 0.1% (w/v) solution containing 1 mg emodepside/mL. […] Emodepside plasma concentrations were determined by a validated high performance liquid chromatography–tandem mass spectrometry assay, using a Alltima C18 5 μm 150 mm x 2.1 mm column and an Applied Biosystems API4000 Turbo Ion Spray detector using positive ion mode. […] The lower limit of quantitation for emodepside in plasma was 1 ng/mL. […]
ASSAY_ENDPOINT: AUC 0–24 h

[Q] Requested read-out: AUC 0–24 h. Entry: CC(C)C[C@H]1C(=O)O[C@H](Cc2ccc(N3CCOCC3)cc2)C(=O)N(C)[C@@H](CC(C)C)C(=O)O[C@H](C)C(=O)N(C)[C@@H](CC(C)C)C(=O)O[C@H](Cc2ccc(N3CCOCC3)cc2)C(=O)N(C)[C@@H](CC(C)C)C(=O)O[C@H](C)C(=O)N1C [emodepside]
[A] 996 ng·h/mL

* * *

Assay: Plasma pharmacokinetics of emodepside, single ascending dose (SAD) and food effect study
Assay type: in vivo, human
Settings: human, in vivo, po, 10 mg, SAD, single oral 10 mg LSF Fed; plasma, HPLC-MS/MS; mean
ASSAY_ENDPOINT: AUC 0–24 h (ng·h/mL)
One number for each entry, in ng·h/mL.

[Q] Requested read-out: AUC 0–24 h. Entry: CC(C)C[C@H]1C(=O)O[C@H](Cc2ccc(N3CCOCC3)cc2)C(=O)N(C)[C@@H](CC(C)C)C(=O)O[C@H](C)C(=O)N(C)[C@@H](CC(C)C)C(=O)O[C@H](Cc2ccc(N3CCOCC3)cc2)C(=O)N(C)[C@@H](CC(C)C)C(=O)O[C@H](C)C(=O)N1C [emodepside]
[A] 673

* * *

Experiment: Plasma pharmacokinetics of emodepside, multiple ascending dose (MAD) study
Format: in vivo, human
Settings: human, plasma, po, 10 mg, 10 mg BID LSF fasting, Day 10, mean (CV%), read-out: CL ss /F (converted)
ASSAY_ENDPOINT: CL/F (mL/min)
Answers are plain numbers, in mL/min.

[Q] Requested read-out: CL/F. Entry: CC(C)C[C@H]1C(=O)O[C@H](Cc2ccc(N3CCOCC3)cc2)C(=O)N(C)[C@@H](CC(C)C)C(=O)O[C@H](C)C(=O)N(C)[C@@H](CC(C)C)C(=O)O[C@H](Cc2ccc(N3CCOCC3)cc2)C(=O)N(C)[C@@H](CC(C)C)C(=O)O[C@H](C)C(=O)N1C [emodepside]
[A] 59.3

* * *

Test: Plasma pharmacokinetics of emodepside, single ascending dose (SAD) and food effect study
Type: in vivo, human
Details: human, in vivo, po, 10 mg, SAD, single oral 10 mg LSF Fed; plasma; ln2/λz; mean; read-out: Terminal t ½ (converted)
ASSAY_ENDPOINT: half-life (days)
Numbers only, in days.

[Q] Requested read-out: half-life. Entry: CC(C)C[C@H]1C(=O)O[C@H](Cc2ccc(N3CCOCC3)cc2)C(=O)N(C)[C@@H](CC(C)C)C(=O)O[C@H](C)C(=O)N(C)[C@@H](CC(C)C)C(=O)O[C@H](Cc2ccc(N3CCOCC3)cc2)C(=O)N(C)[C@@H](CC(C)C)C(=O)O[C@H](C)C(=O)N1C [emodepside]
[A] 22.1

* * *

Test: Plasma pharmacokinetics of emodepside, multiple ascending dose (MAD) study
Type: in vivo, human
Conditions: human, plasma, po, 5 mg, 5 mg OD LSF fasting, Day 10, plasma, HPLC-MS/MS, mean (CV%)
Procedure: Emodepside and placebo were supplied as a LSF and a standard immediate‐release (IR) tablet. The LSF was a 0.1% (w/v) solution containing 1 mg emodepside/mL. […] Emodepside plasma concentrations were determined by a validated high performance liquid chromatography–tandem mass spectrometry assay, using a Alltima C18 5 μm 150 mm x 2.1 mm column and an Applied Biosystems API4000 Turbo Ion Spray detector using positive ion mode. […] The lower limit of quantitation for emodepside in plasma was 1 ng/mL. […]
ASSAY_ENDPOINT: AUC 0–24 (ng·h/mL)
One number for each entry, in ng·h/mL.

[Q] Requested read-out: AUC 0–24. Entry: CC(C)C[C@H]1C(=O)O[C@H](Cc2ccc(N3CCOCC3)cc2)C(=O)N(C)[C@@H](CC(C)C)C(=O)O[C@H](C)C(=O)N(C)[C@@H](CC(C)C)C(=O)O[C@H](Cc2ccc(N3CCOCC3)cc2)C(=O)N(C)[C@@H](CC(C)C)C(=O)O[C@H](C)C(=O)N1C [emodepside]
[A] 1690

* * *

Assay: Plasma pharmacokinetics of emodepside, single ascending dose (SAD) and food effect study
Assay type: in vivo, human
Conditions: human, in vivo, po, 20 mg, SAD, single oral 20 mg LSF fasting; plasma; median (range)
ASSAY_ENDPOINT: Tmax (h)
Give bare numbers, in h.

[Q] Requested read-out: Tmax. Entry: CC(C)C[C@H]1C(=O)O[C@H](Cc2ccc(N3CCOCC3)cc2)C(=O)N(C)[C@@H](CC(C)C)C(=O)O[C@H](C)C(=O)N(C)[C@@H](CC(C)C)C(=O)O[C@H](Cc2ccc(N3CCOCC3)cc2)C(=O)N(C)[C@@H](CC(C)C)C(=O)O[C@H](C)C(=O)N1C [emodepside]
[A] 1.5

* * *

Test: Plasma pharmacokinetics of emodepside, multiple ascending dose (MAD) study
Type: in vivo, human
Settings: human, plasma, po, 10 mg, 10 mg BID LSF fasting, Day 10, mean (CV%), read-out: V z /F
ASSAY_ENDPOINT: Vd/F (L)
One number for each entry, in L.

[Q] Requested read-out: Vd/F. Entry: CC(C)C[C@H]1C(=O)O[C@H](Cc2ccc(N3CCOCC3)cc2)C(=O)N(C)[C@@H](CC(C)C)C(=O)O[C@H](C)C(=O)N(C)[C@@H](CC(C)C)C(=O)O[C@H](Cc2ccc(N3CCOCC3)cc2)C(=O)N(C)[C@@H](CC(C)C)C(=O)O[C@H](C)C(=O)N1C [emodepside]
[A] 2610

* * *

Test: Plasma pharmacokinetics of emodepside, single ascending dose (SAD) and food effect study
Format: in vivo, human
Conditions: human, in vivo, po, 5 mg, SAD, single oral 5 mg LSF fasting; plasma, HPLC-MS/MS; mean
ASSAY_ENDPOINT: Cmax (ng/mL)
Answers are plain numbers, in ng/mL.

[Q] Requested read-out: Cmax. Entry: CC(C)C[C@H]1C(=O)O[C@H](Cc2ccc(N3CCOCC3)cc2)C(=O)N(C)[C@@H](CC(C)C)C(=O)O[C@H](C)C(=O)N(C)[C@@H](CC(C)C)C(=O)O[C@H](Cc2ccc(N3CCOCC3)cc2)C(=O)N(C)[C@@H](CC(C)C)C(=O)O[C@H](C)C(=O)N1C [emodepside]
[A] 92.1

* * *

Assay: Plasma pharmacokinetics of emodepside, multiple ascending dose (MAD) study
Assay type: in vivo, human
Settings: human, plasma, po, 10 mg, 10 mg BID LSF fasting, Day 1, plasma, HPLC-MS/MS, mean (CV%)
ASSAY_ENDPOINT: AUC 0–24 (ng·h/mL)
Numbers only, in ng·h/mL.

[Q] Requested read-out: AUC 0–24. Entry: CC(C)C[C@H]1C(=O)O[C@H](Cc2ccc(N3CCOCC3)cc2)C(=O)N(C)[C@@H](CC(C)C)C(=O)O[C@H](C)C(=O)N(C)[C@@H](CC(C)C)C(=O)O[C@H](Cc2ccc(N3CCOCC3)cc2)C(=O)N(C)[C@@H](CC(C)C)C(=O)O[C@H](C)C(=O)N1C [emodepside]
[A] 1430

* * *

Assay: Plasma pharmacokinetics of emodepside, single ascending dose (SAD) and food effect study
Format: in vivo, human
Details: human, in vivo, po, 20 mg, SAD, single oral 20 mg IRT fasting; plasma; median (range)
ASSAY_ENDPOINT: Tmax (h)
Numbers only, in h.

[Q] Requested read-out: Tmax. Entry: CC(C)C[C@H]1C(=O)O[C@H](Cc2ccc(N3CCOCC3)cc2)C(=O)N(C)[C@@H](CC(C)C)C(=O)O[C@H](C)C(=O)N(C)[C@@H](CC(C)C)C(=O)O[C@H](Cc2ccc(N3CCOCC3)cc2)C(=O)N(C)[C@@H](CC(C)C)C(=O)O[C@H](C)C(=O)N1C [emodepside]
[A] 2

* * *

Test: Plasma pharmacokinetics of emodepside, single ascending dose (SAD) and food effect study
Type: in vivo, human
Details: human, in vivo, po, 1 mg, SAD, single oral 1 mg LSF fasting; plasma; ln2/λz; mean; read-out: Terminal t ½ (converted)
ASSAY_ENDPOINT: half-life
# answer = value followed by unit

[Q] Requested read-out: half-life. Entry: CC(C)C[C@H]1C(=O)O[C@H](Cc2ccc(N3CCOCC3)cc2)C(=O)N(C)[C@@H](CC(C)C)C(=O)O[C@H](C)C(=O)N(C)[C@@H](CC(C)C)C(=O)O[C@H](Cc2ccc(N3CCOCC3)cc2)C(=O)N(C)[C@@H](CC(C)C)C(=O)O[C@H](C)C(=O)N1C [emodepside]
[A] 42.7 h
